Tested on: P388
Experiment: Fold resistance calculated as the inhibition concentration ratio between retrovirally transformed murine P388/VMDRC.04 and parental P388 cells
Assay type: functional
Lab note: class by FR, see low (below 3), moderate (3 to below 10), high (10 or more)

smiles_representation: C=C1C[C@@H]2CC[C@@]34C[C@@H]5O[C@@H]6C(O[C@H]7CC[C@H](CC(=O)C[C@@H]8[C@@H](OC)[C@@H](C[C@H](O)COC(=O)Nc9ccc(OC)cc9)O[C@H]8C[C@H]8O[C@@H](CC[C@@H]1O2)C[C@@H](C)C8=C)O[C@@H]7[C@@H]6O3)[C@H]5O4
group: moderate

smiles_representation: C=C1C[C@@H]2CC[C@@]34C[C@@H]5O[C@@H]6C(O[C@H]7CC[C@H](CC(=O)C[C@@H]8[C@@H](OC)[C@@H](C[C@H](O)CS(=O)(=O)c9ccc(OC)cc9)O[C@H]8C[C@H]8O[C@@H](CC[C@@H]1O2)C[C@@H](C)C8=C)O[C@@H]7[C@@H]6O3)[C@H]5O4
group: moderate

smiles_representation: C=C1C[C@@H]2CC[C@@]34C[C@@H]5O[C@@H]6C(O[C@H]7CC[C@H](CC(=O)C[C@@H]8[C@@H](OC)[C@@H](C[C@H](O)CS(=O)(=O)c9ccc(Cl)cc9)O[C@H]8C[C@H]8O[C@@H](CC[C@@H]1O2)C[C@@H](C)C8=C)O[C@@H]7[C@@H]6O3)[C@H]5O4
group: moderate

smiles_representation: C=C1C[C@@H]2CC[C@@]34C[C@@H]5O[C@@H]6C(O[C@H]7CC[C@H](CC(=O)C[C@@H]8[C@@H](OC)[C@@H](C[C@H](O)CNC(=O)C(=O)c9ccccc9)O[C@H]8C[C@H]8O[C@@H](CC[C@@H]1O2)C[C@@H](C)C8=C)O[C@@H]7[C@@H]6O3)[C@H]5O4
group: moderate

smiles_representation: C=C1C[C@@H]2CC[C@@]34C[C@@H]5O[C@@H]6C(O[C@H]7CC[C@H](CC(=O)C[C@@H]8[C@@H](OC)[C@@H](C[C@H](O)CN9CCCCC9)O[C@H]8C[C@H]8O[C@@H](CC[C@@H]1O2)C[C@@H](C)C8=C)O[C@@H]7[C@@H]6O3)[C@H]5O4
group: high

Could you place `C=C1C[C@@H]2CC[C@@]34C[C@@H]5O[C@@H]6C(O[C@H]7CC[C@H](CC(=O)C[C@@H]8[C@@H](OC)[C@@H](C[C@H](O)CNC(=O)c9cc(OC)c(OC)c(OC)c9)O[C@H]8C[C@H]8O[C@@H](CC[C@@H]1O2)C[C@@H](C)C8=C)O[C@@H]7[C@@H]6O3)[C@H]5O4` in its proper category? Many thanks.
high

Could you place `C=C1C[C@@H]2CC[C@@]34C[C@@H]5O[C@@H]6C(O[C@H]7CC[C@H](CC(=O)C[C@@H]8[C@@H](OC)[C@@H](C[C@H](O)CN(C)C)O[C@H]8C[C@H]8O[C@@H](CC[C@@H]1O2)C[C@@H](C)C8=C)O[C@@H]7[C@@H]6O3)[C@H]5O4` in its proper category? Many thanks.
high

Could you place `C=C1C[C@@H]2CC[C@@]34C[C@@H]5O[C@@H]6C(O[C@H]7CC[C@H](CC(=O)C[C@@H]8[C@@H](OC)[C@@H](CCO)O[C@H]8C[C@H]8O[C@@H](CC[C@@H]1O2)C[C@@H](C)C8=C)O[C@@H]7[C@@H]6O3)[C@H]5O4` in its proper category? Many thanks.
moderate

Could you place `C=C1C[C@@H]2CC[C@@]34C[C@@H]5O[C@@H]6C(O[C@H]7CC[C@H](CC(=O)C[C@@H]8[C@@H](OC)[C@@H](C[C@H](O)CSc9ccc(OC)cc9)O[C@H]8C[C@H]8O[C@@H](CC[C@@H]1O2)C[C@@H](C)C8=C)O[C@@H]7[C@@H]6O3)[C@H]5O4` in its proper category? Many thanks.
low

Could you place `C=C1C[C@@H]2CC[C@@]34C[C@@H]5O[C@@H]6C(O[C@H]7CC[C@H](CC(=O)C[C@@H]8[C@@H](OC)[C@@H](C[C@H](O)COC(=O)Nc9ccc(Cl)cc9)O[C@H]8C[C@H]8O[C@@H](CC[C@@H]1O2)C[C@@H](C)C8=C)O[C@@H]7[C@@H]6O3)[C@H]5O4` in its proper category? Many thanks.
moderate

Could you place `C=C1C[C@@H]2CC[C@@]34C[C@@H]5O[C@@H]6C(O[C@H]7CC[C@H](CC(=O)C[C@@H]8[C@@H](OC)[C@@H](C[C@H](O)CO)O[C@H]8C[C@H]8O[C@@H](CC[C@@H]1O2)C[C@@H](C)C8=C)O[C@@H]7[C@@H]6O3)[C@H]5O4` in its proper category? Many thanks.
moderate

Could you place `C=C1C[C@@H]2CC[C@@]34C[C@@H]5O[C@@H]6C(O[C@H]7CC[C@H](CC(=O)C[C@@H]8[C@@H](OC)[C@@H](C[C@H](O)CSc9ccc(Cl)cc9)O[C@H]8C[C@H]8O[C@@H](CC[C@@H]1O2)C[C@@H](C)C8=C)O[C@@H]7[C@@H]6O3)[C@H]5O4` in its proper category? Many thanks.
low

---

Collected IC99 values appear next to each entry.
Test system: U-937
Test: In vitro inhibitory concentration required to inhibit the growth of U937 cells was determined at 10 hr by mitotic block reversibility assay
Assay type: functional
Conditions: Homo sapiens, U-937, 10 h
Only the number, expressed in µM, is required.

Solved cases (5 shown):
smiles_representation: C=C1C[C@@H]2CC[C@@]34C[C@@H]5O[C@@H]6C(O[C@H]7CC[C@H](CC(=O)C[C@@H]8[C@@H](OC)[C@@H](C[C@H](O)CSc9ccc(OC)cc9)O[C@H]8C[C@H]8O[C@@H](CC[C@@H]1O2)C[C@@H](C)C8=C)O[C@@H]7[C@@H]6O3)[C@H]5O4
unit_abbreviation: µM
IC99: 0.03
//
smiles_representation: C=C1C[C@@H]2CC[C@@]34C[C@@H]5O[C@@H]6C(O[C@H]7CC[C@H](CC(=O)C[C@@H]8[C@@H](OC)[C@@H](C[C@H](O)COC(=O)Nc9ccc(Cl)cc9)O[C@H]8C[C@H]8O[C@@H](CC[C@@H]1O2)C[C@@H](C)C8=C)O[C@@H]7[C@@H]6O3)[C@H]5O4
unit_abbreviation: µM
IC99: 0.065
//
smiles_representation: C=C1C[C@@H]2CC[C@@]34C[C@@H]5O[C@@H]6C(O[C@H]7CC[C@H](CC(=O)C[C@@H]8[C@@H](OC)[C@@H](CC(=O)CO)O[C@H]8C[C@H]8O[C@@H](CC[C@@H]1O2)C[C@@H](C)C8=C)O[C@@H]7[C@@H]6O3)[C@H]5O4
unit_abbreviation: µM
IC99: 0.03
//
smiles_representation: C=C1C[C@@H]2CC[C@@]34C[C@@H]5O[C@@H]6C(O[C@H]7CC[C@H](CC(=O)C[C@@H]8[C@@H](OC)[C@@H](C[C@H](O)CNC(=O)c9cc(OC)c(OC)c(OC)c9)O[C@H]8C[C@H]8O[C@@H](CC[C@@H]1O2)C[C@@H](C)C8=C)O[C@@H]7[C@@H]6O3)[C@H]5O4
unit_abbreviation: µM
IC99: 0.01
//
smiles_representation: C=C1C[C@@H]2CC[C@@]34C[C@@H]5O[C@@H]6C(O[C@H]7CC[C@H](CC(=O)O[C@@H]8[C@@H](C)[C@@H]9O[C@@H]%10C[C@]%11(C[C@@H]%12O[C@]%13(C[C@H](C)[C@@H]%14O[C@H]([C@@H](O)C[C@@H](O)CO)C[C@@H]%14O%13)C[C@H](C)[C@@H]%12O%11)O[C@@H]%10C[C@@H]9O[C@H]8C[C@H]8O[C@@H](CC[C@@H]1O2)C[C@@H](C)C8=C)O[C@@H]7[C@@H]6O3)[C@H]5O4
unit_abbreviation: µM
IC99: 0.025

Which measured IC99 value corresponds to `C=C1C[C@@H]2CC[C@@]34C[C@@H]5O[C@@H]6C(O[C@H]7CC[C@H](CC(=O)C[C@@H]8[C@@H](OC)[C@@H](C[C@H](O)CNC(=O)C(=O)c9ccccc9)O[C@H]8C[C@H]8O[C@@H](CC[C@@H]1O2)C[C@@H](C)C8=C)O[C@@H]7[C@@H]6O3)[C@H]5O4` ?
0.01

---

System: P388
Test: Fold resistance calculated as the inhibition concentration ratio between retrovirally transformed murine P388/VMDRC.04 and parental P388 cells
Assay type: functional
property_measured: FR
Give the figure only, with no unit attached.

smiles_representation: C=C1C[C@@H]2CC[C@@]34C[C@@H]5O[C@@H]6C(O[C@H]7CC[C@H](CC(=O)O[C@@H]8[C@@H](C)[C@@H]9O[C@@H]%10C[C@]%11(C[C@@H]%12O[C@]%13(C[C@H](C)[C@@H]%14O[C@H]([C@@H](O)C[C@@H](O)CO)C[C@@H]%14O%13)C[C@H](C)[C@@H]%12O%11)O[C@@H]%10C[C@@H]9O[C@H]8C[C@H]8O[C@@H](CC[C@@H]1O2)C[C@@H](C)C8=C)O[C@@H]7[C@@H]6O3)[C@H]5O4
property_measured: FR
quantitative_readout: 2.8

# next compound below
Which measured FR value corresponds to `C=C1C[C@@H]2CC[C@@]34C[C@@H]5O[C@@H]6C(O[C@H]7CC[C@H](CC(=O)C[C@@H]8[C@@H](OC)[C@@H](C[C@H](O)CNC)O[C@H]8C[C@H]8O[C@@H](CC[C@@H]1O2)C[C@@H](C)C8=C)O[C@@H]7[C@@H]6O3)[C@H]5O4` ?
7
